Test system: Alpha-glucosidase (EC 3.2.1.20)
Measurement Protocol: Alpha-Glucosidase Inhibition Assay
Type: biochemical
Experimental Context: 0.1 mg/mL final concentration
Description: Alpha-Glucosidase Inhibition Assay. The assay was performed according to the 126 Journal of Natural Products, 2008. Vol. 71. No. 1 Notes method described by Oki and co-workers, with slight modifications.^13 alpha-Glucosidase was purchased from Toyobo Co., Ltd. (Osaka. Japan). […] The increase in absorbance from zero time was measured. […]
Value Kind: alpha-Glucosidase inhibition (%)

Compound	Value Kind	Readout Value
CC1(C)CCC[C@@]2(C)[C@H]1[C@H](O)C=C1C(=O)OC[C@]12O	alpha-Glucosidase inhibition (%)	7.2
CC(=O)O[C@@H]1[C@@H](O)C2=C(C(=O)OC2)[C@@]2(C)CCCC(C)(C)[C@H]12 [Compound 4, ugandensolide]	alpha-Glucosidase inhibition (%)	46.2
CC(=O)O[C@@H]1C=C2C(=O)OCC2(O)[C@@]2(C)CCCC(C)(C)C12 (stereo partly drawn) [CMOS, cinnamosmolide]	alpha-Glucosidase inhibition (%)	20.0
CC(=O)O[C@@H]1C=C(C=O)[C@@](O)(C=O)[C@@]2(C)CCCC(C)(C)C12 (stereo partly drawn)	alpha-Glucosidase inhibition (%)	83.7
CC1(C)CCC[C@]2(C)[C@@H](C=O)C(C=O)=CC[C@@H]12	alpha-Glucosidase inhibition (%)	2.1
